# Wheal per entry
Tested on: anaesthesized rats
Assay: wheal test, intradermal injection
Format: in vivo, rat
Settings: Table I; 10 ug peptide intradermally
Non-standard residues stand in square brackets, D forms with d. Residues, ends and D or L forms follow the SMILES beside them. *: point of attachment. dPhe(4-Cl) = N[C@H](Cc1ccc(Cl)cc1)C(=O)O; d2Nal = N[C@H](Cc1ccc2ccccc2c1)C(=O)O; Orn(iPr) = CC(C)NCCC[C@H](N)C(=O)O; d3Pal = N[C@H](Cc1cccnc1)C(=O)O; Nicotinoyl = O=C(c1cccnc1)*
Field format: number, assumed mm^2 /10, no unit text.

**Q:** Quick one: Wheal of CC(=O)N[C@H](Cc1ccc2ccccc2c1)C(=O)N[C@H](Cc1ccc(Cl)cc1)C(=O)N[C@H](Cc1ccc(O)cc1)C(=O)N[C@@H](CO)C(=O)N[C@@H](CCCNC(=N)N)C(=O)N[C@H](CCCCNC(=O)c1cccnc1)C(=O)N[C@@H](CC(C)C)C(=O)N[C@@H](CCCNC(=N)N)C(=O)N1CCC[C@H]1C(=O)N[C@H](C)C(N)=O [compound 24446] (Ac-[d2Nal][dPhe(4-Cl)][dY]SR[dK](Nicotinoyl)LRP[dA]-NH2) ?
**A:** 113.2

**Q:** Quick one: Wheal of CC(=O)N[C@H](Cc1ccc2ccccc2c1)C(=O)N[C@H](Cc1ccc(Cl)cc1)C(=O)N[C@H](Cc1cccnc1)C(=O)N[C@@H](CO)C(=O)N[C@@H](Cc1ccc(O)cc1)C(=O)N[C@H](CCCCNC(=O)c1cccnc1)C(=O)N[C@@H](CC(C)C)C(=O)N[C@@H](CCCNC(C)C)C(=O)N1CCC[C@H]1C(=O)N[C@H](C)C(N)=O [compound 24756] (Ac-[d2Nal][dPhe(4-Cl)][d3Pal]SY[dK](Nicotinoyl)L[Orn(iPr)]P[dA]-NH2) ?
**A:** 92.2

----------
Test system: anaesthesized rats
Experiment: wheal test, intradermal injection
Type: in vivo, rat
Conditions: 10 ug peptide intradermally
Non-standard residues stand in square brackets, D forms with d. Residues, ends and D or L forms follow the SMILES beside them. *: point of attachment. dPhe(4-Cl) = N[C@H](Cc1ccc(Cl)cc1)C(=O)O; d2Nal = N[C@H](Cc1ccc2ccccc2c1)C(=O)O; d3Pal = N[C@H](Cc1cccnc1)C(=O)O; Picolinoyl = O=C(c1ccccn1)*; Abu = CC[C@H](N)C(=O)O
parameter: Wheal Area (mm^2 /10 μg)
Field format: number, assumed mm^2 /10 μg, no unit text.

**Q:** Quick one: Wheal Area of CC[C@H](NC(=O)[C@@H](CCCCNC(=O)c1ccccn1)NC(=O)[C@H](CCCCNC(=O)c1ccccn1)NC(=O)[C@H](CO)NC(=O)[C@@H](Cc1cccnc1)NC(=O)[C@@H](Cc1ccc(Cl)cc1)NC(=O)[C@@H](Cc1ccc2ccccc2c1)NC(C)=O)C(=O)N[C@@H](CCCNC(=N)N)C(=O)N1CCC[C@H]1C(=O)N[C@H](C)C(N)=O [compound 26346] (Ac-[d2Nal][dPhe(4-Cl)][d3Pal]SK(Picolinoyl)[dK](Picolinoyl)[Abu]RP[dA]-NH2) ?
**A:** 113.2

----------
Tested on: anaesthesized rats
Assay: wheal test, intradermal injection
Type: in vivo, rat
Conditions: 10 ug peptide intradermally
Protocol: The antiovulatory activity, AOA, in rats was determined as described by Humphries et al. (12). Antiovulation assays were performed by counting, on estrus, the number of ova shed by 4-day cycling rats after a single sc injection of the LH-RH analogue in corn oil was administered between 12 and 12:30 p.m. on […]. The control rats received 0.3 mL of the vehicle. […]
Starred links: 1 amine or outer side, 2 acyl side, 3 side chain; linkers in the order of their positions; H or OH if unused. Non-standard residues stand in square brackets, D forms with d. Residues, ends and D or L forms follow the SMILES beside them. *: point of attachment. dAla(cis-4-NHCOPyz-cHex) = N[C@H](C[C@H]1CC[C@@H](NC(=O)c2cnccn2)CC1)C(=O)O; X2 = O=C(N[C@H]1CC[C@@H](C[C@H](N[*:1])C(=O)[*:2])CC1)c1cnccn1; dPhe(4-Cl) = N[C@H](Cc1ccc(Cl)cc1)C(=O)O; d2Nal = N[C@H](Cc1ccc2ccccc2c1)C(=O)O; Picolinoyl(6-Me) = Cc1cccc(C(=O)*)n1; Lys(iPr) = CC(C)NCCCC[C@H](N)C(=O)O; d3Pal = N[C@H](Cc1cccnc1)C(=O)O; Picolinoyl = O=C(c1ccccn1)*
# Wheal Area per entry

Example entries begin here.
{"compound": "CC(=O)N[C@H](Cc1ccc2ccccc2c1)C(=O)N[C@H](Cc1ccc(Cl)cc1)C(=O)N[C@H](Cc1cccnc1)C(=O)N[C@@H](CO)C(=O)N[C@@H](CCCCNC(=O)c1ccccn1)C(=O)N[C@H](C[C@H]1CC[C@@H](NC(=O)c2cnccn2)CC1)C(=O)N[C@@H](Cc1ccccc1)C(=O)N[C@@H](CCCCNC(C)C)C(=O)N1CCC[C@H]1C(=O)N[C@H](C)C(N)=O [compound 26366] (Ac-[d2Nal][dPhe(4-Cl)][d3Pal]SK(Picolinoyl)[dAla(cis-4-NHCOPyz-cHex)]F[Lys(iPr)]P[dA]-NH2)", "val": "116.2 ± 3.2 mm^2 /10 μg"}
{"compound": "CC(=O)N[C@H](Cc1ccc2ccccc2c1)C(=O)N[C@H](Cc1ccc(Cl)cc1)C(=O)N[C@H](Cc1cccnc1)C(=O)N[C@@H](CO)C(=O)N[C@@H](C[C@H]1CC[C@@H](NC(=O)c2cnccn2)CC1)C(=O)N[C@H](C[C@H]1CC[C@@H](NC(=O)c2cnccn2)CC1)C(=O)N[C@@H](CC(C)C)C(=O)N[C@@H](CCCCNC(C)C)C(=O)N1CCC[C@H]1C(=O)N[C@H](C)C(N)=O [compound 26326] (Ac-[d2Nal][dPhe(4-Cl)][d3Pal]S[X2][dAla(cis-4-NHCOPyz-cHex)]L[Lys(iPr)]P[dA]-NH2)", "val": "115.5 ± 2.4 mm^2 /10 μg"}
{"compound": "CC(=O)N[C@H](Cc1ccc2ccccc2c1)C(=O)N[C@H](Cc1ccc(Cl)cc1)C(=O)N[C@H](Cc1cccnc1)C(=O)N[C@@H](CO)C(=O)N[C@@H](CCCCNC(=O)c1cccc(C)n1)C(=O)N[C@H](CCCCNC(=O)c1cccc(C)n1)C(=O)N[C@@H](CC(C)C)C(=O)N[C@@H](CCCCNC(C)C)C(=O)N1CCC[C@H]1C(=O)N[C@H](C)C(N)=O [compound 25808] (Ac-[d2Nal][dPhe(4-Cl)][d3Pal]SK(Picolinoyl(6-Me))[dK](Picolinoyl(6-Me))L[Lys(iPr)]P[dA]-NH2)", "val": "106.2 ± 4.3 mm^2 /10 μg"}

Okay, now this compound:
**Q:** GET /values?readout=Wheal Area&system=anaesthesized rats&item= CC(=O)N[C@H](Cc1ccc2ccccc2c1)C(=O)N[C@H](Cc1ccc(Cl)cc1)C(=O)N[C@H](Cc1cccnc1)C(=O)N[C@@H](CO)C(=O)N[C@@H](Cc1ccc(O)cc1)C(=O)N[C@H](C[C@H]1CC[C@@H](NC(=O)c2cnccn2)CC1)C(=O)N[C@@H](CC(C)C)C(=O)N[C@@H](CCCCNC(C)C)C(=O)N1CCC[C@H]1C(=O)N[C@H](CO)C(N)=O [compound 26365] (Ac-[d2Nal][dPhe(4-Cl)][d3Pal]SY[dAla(cis-4-NHCOPyz-cHex)]L[Lys(iPr)]P[dS]-NH2)
**A:** 129.4 ± 3.3 mm^2 /10 μg

----------
# Wheal per entry
Test system: anaesthesized rats
Assay: wheal test, intradermal injection
Assay type: in vivo, rat
Settings: Table I; 10 ug peptide intradermally
Non-standard residues stand in square brackets, D forms with d. Residues, ends and D or L forms follow the SMILES beside them. *: point of attachment. dPhe(4-Cl) = N[C@H](Cc1ccc(Cl)cc1)C(=O)O; d2Nal = N[C@H](Cc1ccc2ccccc2c1)C(=O)O; Lys(iPr) = CC(C)NCCCC[C@H](N)C(=O)O; Orn(iPr) = CC(C)NCCC[C@H](N)C(=O)O; d3Pal = N[C@H](Cc1cccnc1)C(=O)O; Nicotinoyl = O=C(c1cccnc1)*; Picolinoyl = O=C(c1ccccn1)*; Orn = NCCC[C@H](N)C(=O)O
Field format: number, assumed mm^2 /10, no unit text.

{"compound": "CC(=O)N[C@H](Cc1ccc2ccccc2c1)C(=O)N[C@H](Cc1ccc(Cl)cc1)C(=O)N[C@H](Cc1cccnc1)C(=O)N[C@@H](CO)C(=O)N[C@@H](CCCNC(=O)c1cccnc1)C(=O)N[C@H](CCCCNC(=O)c1cccnc1)C(=O)N[C@@H](CC(C)C)C(=O)N[C@@H](CCCNC(C)C)C(=O)N1CCC[C@H]1C(=O)N[C@H](C)C(N)=O [compound 25333] (Ac-[d2Nal][dPhe(4-Cl)][d3Pal]S[Orn](Nicotinoyl)[dK](Nicotinoyl)L[Orn(iPr)]P[dA]-NH2)", "unit.descriptor": "mm^2 /10", "val": 113.6}

**Q:** GET /values?readout=Wheal&system=anaesthesized rats&item= CC(=O)N[C@H](Cc1ccc2ccccc2c1)C(=O)N[C@H](Cc1ccc(Cl)cc1)C(=O)N[C@H](Cc1cccnc1)C(=O)N[C@@H](CO)C(=O)N[C@@H](CCCCNC(=O)c1ccccn1)C(=O)N[C@H](CCCCNC(=O)c1ccccn1)C(=O)N[C@@H](CC(C)C)C(=O)N[C@@H](CCCCNC(C)C)C(=O)N1CCC[C@H]1C(=O)N[C@H](C)C(N)=O [compound 25147] (Ac-[d2Nal][dPhe(4-Cl)][d3Pal]SK(Picolinoyl)[dK](Picolinoyl)L[Lys(iPr)]P[dA]-NH2)
**A:** 123.0

Value source: patent US5763404A
